melting point overview

# example entries with known answers
1. CCOc1ccc(CCc2cc(OC)c(OC)c(OC)c2)cc1OS(N)(=O)=O    122.3 to 126.7 °C
2. COc1cc(/C=C/c2cccc(OS(N)(=O)=O)c2)cc(OC)c1OC    136.3 to 139.7 °C
3. COc1ccc(/C=C\c2cc(OC)c(OC)c(OC)c2)cc1OS(=O)(=O)N(C)C    102.7 to 105.6 °C
4. COc1ccc(/C=C\c2cc(OC)c(OC)c(OC)c2)cc1NS(N)(=O)=O    143.3 to 146.7 °C
5. COc1ccc(CCc2cc(OC)c(OC)c(OC)c2)cc1NS(N)(=O)=O    122.5 to 126.5 °C
6. COc1ccc(/C=C/c2cc(OC)c(OC)c(OC)c2)cc1NS(N)(=O)=O    157.9 to 161.1 °C
7. CNS(=O)(=O)Oc1cc(/C=C\c2cc(OC)c(OC)c(OC)c2)ccc1OC    118.4 to 121.6 °C

Let's switch to this compound now.
Input: Reported melting point for "COc1cc(/C=C/c2ccc(OC(F)F)c(OS(N)(=O)=O)c2)cc(OC)c1OC" : what is it?
Output: 145.5 to 148.6 °C

---

melting point overview

# example entries with known answers
1) COc1cc(/C=C\c2ccc(OC(F)F)c(OS(N)(=O)=O)c2)cc(OC)c1OC    161.6 to 162.9 °C
2) COc1cc(CCc2cccc(OS(N)(=O)=O)c2)cc(OC)c1OC    108.4 to 120.8 °C
3) COc1cc(CCc2ccc(OC(F)F)c(OS(N)(=O)=O)c2)cc(OC)c1OC    142.5 to 145.8 °C

Input: Reported melting point for "COc1cc(/C=C\c2cccc(OS(N)(=O)=O)c2)cc(OC)c1OC" : what is it?
Output: 107.1 to 110.6 °C
